Values compiled from the kinase profiling compilation of Christmann-Franck et al. (2016).

- tgt: CSK (human)
- experimentalProtocol: radiometric filter-binding kinase assay, Kinase HotSpot
- setupConditions: compound 0.5 µM; ATP 10 µM
Classify by measured residual activity: condition met if it is equal to or exceeds 90%, condition not met if it is smaller.

Some entries whose results are on file:
O=C1Nc2ccc(Cl)cc2/C1=C/c1cc(Cl)c(O)c(Cl)c1: condition not met
Cc1ccc(Nc2nccc(N(C)c3ccc4c(C)n(C)nc4c3)n2)cc1S(N)(=O)=O: condition met
O=c1cc(N2CCOCC2)oc2c1ccc1ccccc12: condition met

Hi, just wondering whether CO[C@H]1CC2CC[C@@H](C)[C@@](O)(O2)C(=O)C(=O)N2CCCC[C@H]2C(=O)OC([C@H](C)C[C@@H]2CC[C@@H](O)[C@H](OC)C2)CC(=O)[C@H](C)/C=C(\C)[C@@H](O)[C@@H](OC)C(=O)[C@H](C)C[C@H](C)/C=C/C=C/C=C/1C (stereo partly drawn) shows residual activity of 90% or higher.
condition met

Dear colleague, could you confirm whether "Nc1ncnc2c1c(-c1ccc(Oc3ccccc3)cc1)cn2C1CCCC1" has residual activity at or above 90%?
condition not met

Threshold query (residual activity >= 90%) on "Nc1cccc(-c2cc3c(Oc4cccc(O)c4)ncnc3[nH]2)c1"
condition not met

Does the reported residual activity for "O=C1NC(=O)C(c2cn(CCCn3ccnc3)c3ccccc23)=C1Nc1ccccc1" fall at or above the 90% mark?
condition met

* * *

- tgt: ERBB4 (human)
- experimentalProtocol: radiometric filter-binding kinase assay, Kinase HotSpot
- setupConditions: compound 0.5 µM; ATP 10 µM
Measured residual activity by item
Give a bare numeral; the unit % is implied.

Quick one: residual activity for "CC(C)N(CCC(=O)c1ccc2ccccc2c1)Cc1ccccc1" ?
91.7

Could you share which residual activity value was measured for "O=C1Nc2ccc(Cl)cc2/C1=C/c1cc(Cl)c(O)c(Cl)c1" ?
94.2

Given the compound "CCN(CC)CCNC(=O)c1c(C)[nH]c(/C=C2\C(=O)Nc3ccc(Cl)cc32)c1C" , what is its reported residual activity?
86.1

Item "COc1ccc2c(c[n+](C)c3c4cc5c(cc4ccc23)OCO5)c1OC" has what recorded residual activity?
99.9

Data request, read-out residual activity, for "CCN(CC)CCNC(=O)c1c(C)[nH]c(/C=C2\C(=O)Nc3ccc(F)cc32)c1C"
94.8

Any idea what residual activity was measured for "Cc1ccc(S(=O)(=O)/C=C/C#N)cc1" ?
99.7

For "O=C(Nc1cccc(Nc2nccc(Nc3cccc(C(F)(F)F)c3)n2)c1)C1CC1" , what is its reported residual activity?
103

Quick one: residual activity for "c1ccc(-c2n[nH]cc2-c2ccnc3ccccc23)nc1" ?
85.7

I would be grateful if you could share the reported residual activity for "Cc1ccc(NC2=CC(=O)c3sc(C)nc3C2=O)cc1" .
98.5

# residual activity lookup, item "COc1ccc(COc2ccc(Cc3cnc(N)nc3N)cc2OC)cc1"
110

Look up residual activity: "Cc1ccc(Nc2nccc(N(C)c3ccc4c(C)n(C)nc4c3)n2)cc1S(N)(=O)=O"
86.9

I am curious: what residual activity value has been reported for CO[C@H]1CC2CC[C@@H](C)[C@@](O)(O2)C(=O)C(=O)N2CCCC[C@H]2C(=O)OC([C@H](C)C[C@@H]2CC[C@@H](O)[C@H](OC)C2)CC(=O)[C@H](C)/C=C(\C)[C@@H](O)[C@@H](OC)C(=O)[C@H](C)C[C@H](C)/C=C/C=C/C=C/1C (some centres undefined) ?
88.7

What does the data say about its residual activity? Entry: "Oc1cccc(-c2nc(N3CCOCC3)c3oc4ncccc4c3n2)c1"
97.6

Need residual activity of "CC(=O)c1ccc(N2CCOCC2)cc1O" , thanks.
107
